Origin of values: patent US6914045B2

# System: Staphylococcus sp.
# protocol_notes: in vitro antibacterial evaluation, MIC by broth dilution
# Format: cell-based
# run_conditions: strain GC 4543; broth dilution, 18 hours at 35° C.
Hi! Could you tag entries with MIC Staphylococcus aureus-SMITH (GC 4543) below 8 µg/mL as Criterion met, and those at or above as Criterion not met? Much appreciated.

Would you kindly verify if MIC Staphylococcus aureus-SMITH (GC 4543) of CC(c1ccccc1)C1NC(=O)CNC(=O)C(CO)NC(=O)C(C(O)C2CNC(=N)N2C2OC(CO)C(O)C(O)C2O)NC(=O)C(C(O)C2CNC(=N)N2)NC(=O)C(Cc2ccc(OC3OC(CO)C(OC4OC5COC(c6ccc(Oc7ccc(C(C)(C)C)cc7)cc6)OC5C(O)C4O)C(O)C3O)cc2)NC1=O (stereo not drawn) is strictly less than 8 µg/mL?
Criterion met

Would you kindly verify if MIC Staphylococcus aureus-SMITH (GC 4543) of CC(c1ccccc1)C1NC(=O)CNC(=O)C(CO)NC(=O)C(CC2CNC(=N)N2C2OC(CO)C(O)C(O)C2O)NC(=O)C(CC2CNC(=N)N2)NC(=O)C(Cc2ccc(OC3OC(CO)C(OC4OC5COC6(OC5C(O)C4O)C4CC5CC(C4)CC6C5)C(O)C3O)cc2)NC1=O (stereo not drawn) is strictly less than 8 µg/mL?
Criterion met

Would you kindly verify if MIC Staphylococcus aureus-SMITH (GC 4543) of CC(c1ccccc1)C1NC(=O)CNC(=O)C(CO)NC(=O)C(CC2CNC(=N)N2C2OC(CO)C(O)C(O)C2O)NC(=O)C(CC2CNC(=N)N2)NC(=O)C(Cc2ccc3oc(-c4ccc5c(c4)Cc4ccccc4-5)nc3c2)NC1=O (stereo not drawn) is strictly less than 8 µg/mL?
Criterion met

Would you kindly verify if MIC Staphylococcus aureus-SMITH (GC 4543) of Cc1ccc(Oc2ccc(C3OCC4OC(OC5C(CO)OC(Oc6ccc(CC7NC(=O)C(C(C)c8ccccc8)NC(=O)CNC(=O)C(CO)NC(=O)C(C(O)C8CNC(=N)N8C8OC(CO)C(O)C(O)C8O)NC(=O)C(C(O)C8CNC(=N)N8)NC7=O)cc6)C(O)C5O)C(O)C(O)C4O3)cc2)cc1 (stereo not drawn) is strictly less than 8 µg/mL?
Criterion met

Would you kindly verify if MIC Staphylococcus aureus-SMITH (GC 4543) of CC(C)CC(=O)OC1C(O)C(OC2C(CO)OC(Oc3ccc(CC4NC(=O)C(C(C)c5ccccc5)NC(=O)CNC(=O)C(CO)NC(=O)C(C(O)C5CNC(=N)N5C5OC(CO)C(O)C(O)C5O)NC(=O)C(C(O)C5CNC(=N)N5)NC4=O)cc3)C(O)C2O)OC2COC3(OC21)C1CC2CC(C1)CC3C2 (stereo not drawn) is strictly less than 8 µg/mL?
Criterion met

Would you kindly verify if MIC Staphylococcus aureus-SMITH (GC 4543) of CC(c1ccccc1)C1NC(=O)CNC(=O)C(CO)NC(=O)C(C(O)C2CNC(=N)N2C2OC(CO)C(O)C(O)C2O)NC(=O)C(C(O)C2CNC(=N)N2)NC(=O)C(Cc2ccc3oc(-c4ccc(C(C)(C)C)cc4)nc3c2)NC1=O (stereo not drawn) is strictly less than 8 µg/mL?
Criterion met

Would you kindly verify if MIC Staphylococcus aureus-SMITH (GC 4543) of N=C1NCC(C(O)C2NC(=O)C(Cc3ccc(OC4OC(CO)C(OC5OC6COC(c7ccccc7)OC6C(O)C5O)C(O)C4O)cc3)NC(=O)C(CC3CCCCC3)NC(=O)CNC(=O)C(CO)NC(=O)C(C(O)C3CNC(=N)N3C3OC(CO)C(O)C(O)C3O)NC2=O)N1 (stereo not drawn) is strictly less than 8 µg/mL?
Criterion met

Would you kindly verify if MIC Staphylococcus aureus-SMITH (GC 4543) of CCCCCCC(=O)Nc1cc(CC2NC(=O)C(C(C)c3ccccc3)NC(=O)CNC(=O)C(CO)NC(=O)C(C(O)C3CNC(=N)N3C3OC(CO)C(O)C(O)C3O)NC(=O)C(C(O)C3CNC(=N)N3)NC2=O)ccc1O (stereo not drawn) is strictly less than 8 µg/mL?
Criterion not met
